# assay_notes: Evaluation of solubility in solvent
# Format: physicochemical
# assay_context: propylene carbonate, room temperature (25° C.), highest concentration completely dissolved
Returns Met if the recorded Solubility Solvent-4 is greater than or equal to 30 wt %, and Not met otherwise.

Q: Check the entry Cc1cc([S+](c2ccc3sc4ccccc4c(=O)c3c2)c2cc(C(C)(C)C)ccc2C)c(C(C)(C)C)cc1Sc1ccc2sc3ccccc3c(=O)c2c1 (stereo not drawn) [Example 46] : does Solubility Solvent-4 equal or exceed 30 wt %?
A: Met

Q: # bool: Solubility Solvent-4 of Cc1ccc(C)c([S+](c2ccc3sc4ccccc4c(=O)c3c2)c2cc(C)c(S(=O)(=O)c3ccc4sc5ccccc5c(=O)c4c3)cc2C)c1 (stereo not drawn) [Example 51] >= 30 wt %
A: Met

Q: Is the recorded value of Solubility Solvent-4 equal to or greater than 30 wt % for this compound? CC(C)(C)c1cccc([S+](c2ccc3sc4ccccc4c(=O)c3c2)c2ccc(Sc3ccc4sc5ccccc5c(=O)c4c3)cc2C(C)(C)C)c1 (stereo not drawn) [Example 23]
A: Not met

Q: Would you say COc1cccc([S+](c2ccc3sc4ccccc4c(=O)c3c2)c2ccc(Sc3ccc4sc5ccccc5c(=O)c4c3)cc2OC)c1 (stereo not drawn) [Example 14] shows Solubility Solvent-4 at minimum 30 wt %?
A: Met

Q: I'd appreciate it if you could say whether COc1cccc([S+](c2ccc3sc4ccccc4c(=O)c3c2)c2ccc(Sc3ccc4sc5ccccc5c(=O)c4c3)cc2OC)c1 (stereo not drawn) [Example 15] has Solubility Solvent-4 at least equal to 30 wt %.
A: Not met

Q: Record O=c1c2ccccc2sc2ccc(Sc3ccc([S+](c4ccccc4)c4ccc5sc6ccccc6c(=O)c5c4)cc3)cc12 (stereo not drawn) [Comparative Example 3, reference compound] ; criterion: Solubility Solvent-4 no lower than 30 wt %. Met?
A: Met

Q: Check this compound for Solubility Solvent-4 at or above 30 wt %: Cc1cc(C)cc([S+](c2ccc3sc4ccccc4c(=O)c3c2)c2c(C)cc(Sc3ccc4sc5ccccc5c(=O)c4c3)cc2C)c1 (stereo not drawn) [Example 31]
A: Not met

Q: Is reported Solubility Solvent-4 greater than or equal to 30 wt % here: O=c1c2ccccc2sc2ccc(Sc3ccc([S+](c4ccccc4)c4ccc5sc6ccccc6c(=O)c5c4)cc3)cc12 (stereo not drawn) [Comparative Example 4, reference compound]
A: Not met

Q: hey, is Solubility Solvent-4 for this one >= 30 wt %? Cc1ccc(C)c([S+](c2ccc3sc4ccccc4c(=O)c3c2)c2cc(C)c(Sc3ccc4sc5ccccc5c(=O)c4c3)cc2C)c1 (stereo not drawn) [Example 36]
A: Not met

Q: Hi, just wondering whether Cc1cc(C)cc([S+](c2ccc3sc4ccccc4c(=O)c3c2)c2c(C)cc(Sc3ccc4sc5ccccc5c(=O)c4c3)cc2C)c1 (stereo not drawn) [Example 30] shows Solubility Solvent-4 of 30 wt % or higher.
A: Met

====

# assay_notes: Evaluation of solubility in solvent
# Format: physicochemical
# assay_context: propylene carbonate, room temperature (25° C.), highest concentration completely dissolved
Is Solubility Solvent-4 at least 20 wt %? Then Condition met. If not, Condition not met.

Q: Evaluate Cc1ccc(C)c([S+](c2ccc3sc4ccccc4c(=O)c3c2)c2cc(C)c(Sc3ccc4sc5ccccc5c(=O)c4c3)cc2C)c1 (stereo not drawn) [Example 38] : Solubility Solvent-4 at minimum 20 wt %?
A: Condition met

Q: Could you tell me if the measured Solubility Solvent-4 of COc1cccc([S+](c2ccc3sc4ccccc4c(=O)c3c2)c2ccc(Sc3ccc4sc5ccccc5c(=O)c4c3)cc2OC)c1 (stereo not drawn) [Example 12] reaches 20 wt % or more?
A: Condition met

Q: Reported Solubility Solvent-4 at or above 20 wt %? CC(C)(C)c1cccc([S+](c2ccc3sc4ccccc4c(=O)c3c2)c2ccc(Sc3ccc4sc5ccccc5c(=O)c4c3)cc2C(C)(C)C)c1 (stereo not drawn) [Example 22]
A: Condition met

Q: Decide: Solubility Solvent-4 of Cc1cccc([S+](c2ccc3sc4ccccc4c(=O)c3c2)c2ccc(Sc3ccc4sc5ccccc5c(=O)c4c3)cc2C)c1 (stereo not drawn) [Example 6] >= 20 wt %?
A: Condition met

Q: Is reported Solubility Solvent-4 greater than or equal to 20 wt % here: Cc1cc(C)cc([S+](c2ccc3sc4ccccc4c(=O)c3c2)c2c(C)cc(Sc3ccc4sc5ccccc5c(=O)c4c3)cc2C)c1 (stereo not drawn) [Example 28]
A: Condition met

Q: For this molecule, is measured Solubility Solvent-4 20 wt % or higher? Cc1ccc(C)c([S+](c2ccc3sc4ccccc4c(=O)c3c2)c2cc(C)c(Sc3ccc4sc5ccccc5c(=O)c4c3)cc2C)c1 (stereo not drawn) [Example 39]
A: Condition met

Q: Is Solubility Solvent-4 at least 20 wt %? Consider O=c1c2ccccc2sc2ccc(Sc3ccc([S+](c4ccccc4)c4ccc5sc6ccccc6c(=O)c5c4)cc3)cc12 (stereo not drawn) [Comparative Example 2, reference compound]
A: Condition not met

Q: Record CC(C)(C)c1cccc([S+](c2ccc3sc4ccccc4c(=O)c3c2)c2ccc(Sc3ccc4sc5ccccc5c(=O)c4c3)cc2C(C)(C)C)c1 (stereo not drawn) [Example 20] ; criterion: Solubility Solvent-4 no lower than 20 wt %. Met?
A: Condition met

Q: Entry Cc1cc([S+](c2ccc3sc4ccccc4c(=O)c3c2)c2cc(C(C)(C)C)ccc2C)c(C(C)(C)C)cc1Sc1ccc2sc3ccccc3c(=O)c2c1 (stereo not drawn) [Example 44] : is its Solubility Solvent-4 no less than 20 wt %?
A: Condition met

Q: Would you say Cc1cccc([S+](c2ccc3sc4ccccc4c(=O)c3c2)c2ccc(Sc3ccc4sc5ccccc5c(=O)c4c3)cc2C)c1 (stereo not drawn) [Example 4] shows Solubility Solvent-4 at minimum 20 wt %?
A: Condition not met

Q: Hello, I need to know if Cc1cccc([S+](c2ccc3sc4ccccc4c(=O)c3c2)c2ccc(Sc3ccc4sc5ccccc5c(=O)c4c3)cc2C)c1 (stereo not drawn) [Example 7] has measured Solubility Solvent-4 not below 20 wt %. Thanks!
A: Condition not met

Q: Has Cc1ccc(C)c([S+](c2ccc3sc4ccccc4c(=O)c3c2)c2cc(C)c(Oc3ccc4sc5ccccc5c(=O)c4c3)cc2C)c1 (stereo not drawn) a recorded Solubility Solvent-4 greater than or equal to 20 wt %?
A: Condition met
